test system: Felis catus; assay: In vivo inhibition of beta-2 adrenergic receptor in cat assessed as inhibition of isoproterenol-induced vasodepressor response at ED50 administered as 30 mins of infusion measured at 30 mins relative to control; assay type: functional
Assign T to entries whose inhibition (INH) meets or exceeds 20%; assign F to the rest.

compound="C=CCc1cc(NC(=O)NCC)ccc1OCC(O)CNC1CC1 (configuration not stated)" measurementtarget="Felis catus" qualitativelabel=T
compound="CCCCNC(=O)Nc1ccc(OCC(O)CNC(C)(C)C)cc1 (configuration not stated)" measurementtarget="Felis catus" qualitativelabel=F
compound="CCNC(=O)Nc1ccc(OCC(O)CNC(C)C)c(Br)c1 (configuration not stated)" measurementtarget="Felis catus" qualitativelabel=F
compound="CCNC(=O)Nc1ccc(OCC(O)CNC(C)(C)C)c(I)c1 (configuration not stated)" measurementtarget="Felis catus" qualitativelabel=F
compound="C=CCc1cc(NC(=O)NCCC)ccc1OCC(O)CNC(C)C (configuration not stated)" measurementtarget="Felis catus" qualitativelabel=F
compound="CNC(=O)Nc1ccc(OCC(O)CNC(C)C)c(Br)c1 (configuration not stated)" measurementtarget="Felis catus" qualitativelabel=T
compound="Cc1cc(NC(=O)NC(C)C)ccc1OCC(O)CNC(C)(C)C (configuration not stated)" measurementtarget="Felis catus" qualitativelabel=F
compound="CCCCNC(=O)Nc1ccc(OCC(O)CNC(C)C)cc1 (configuration not stated)" measurementtarget="Felis catus" qualitativelabel=F
compound="C=CCNC(=O)Nc1ccc(OCC(O)CNC(C)C)c(Cl)c1 (configuration not stated)" measurementtarget="Felis catus" qualitativelabel=T
compound="C=CCc1cc(NC(=O)NCC)ccc1OCC(O)CNC(C)(C)CO (configuration not stated)" measurementtarget="Felis catus" qualitativelabel=T

Given the entry C=CCc1cc(NC(=O)NCC)ccc1OCC(O)CNC(C)(C)C (configuration not stated) , answer whether its inhibition (INH) meets or surpasses 20%.
T

// inclusive: inhibition (INH) at least 20%? input: CCCNC(=O)Nc1ccc(OCC(O)CNC(C)(C)C)cc1 (configuration not stated)
F

* * *

test system: Felis catus; assay: In vivo inhibition of beta-2 adrenergic receptor in cat assessed as inhibition of isoproterenol-induced vasodepressor response at ED50 administered as 30 mins of infusion measured at 30 mins relative to control; type: functional
Outcome label depends on inhibition (INH) relative to 10%: at/above gives 1 (yes), below gives 0 (no).

Examples with answers:
compound="CCCNC(=O)Nc1ccc(OCC(O)CNC(C)C)c(C)c1 (stereo not given)" qualitativelabel="1 (yes)"
compound="CCNC(=O)Nc1ccc(OCC(O)CNC(C)C)c(CC)c1 (stereo not given)" qualitativelabel="1 (yes)"
compound="CNC(=O)Nc1ccc(OCC(O)CNC(C)C)c(Cl)c1 (stereo not given)" qualitativelabel="1 (yes)"
compound="CCCNC(=O)Nc1ccc(OCC(O)CNC(C)(C)C)c(C)c1 (stereo not given)" qualitativelabel="0 (no)"
compound="CCNC(=O)Nc1ccc(OCC(O)CNC(C)C)cc1 (stereo not given)" qualitativelabel="0 (no)"

Please check the record CCNC(=O)Nc1ccc(OCC(O)CNC(C)C)c(C)c1 (stereo not given) and state if its inhibition (INH) is at or above 10%.
1 (yes)

Say whether C=CCc1cc(NC(=O)NC)ccc1OCC(O)CNC(C)(C)C (stereo not given) shows inhibition (INH) of 10% or more.
1 (yes)

Could you tell me if the measured inhibition (INH) of CCNC(=O)Nc1ccc(OCC(O)CNC(C)C)c(Cl)c1 (stereo not given) reaches 10% or more?
0 (no)

Reported inhibition (INH) reaches at least 10% for CNC(=O)Nc1ccc(OCC(O)CNC(C)C)c(C)c1 (stereo not given) ?
1 (yes)

Assess whether reported inhibition (INH) for CC(C)NCC(O)COc1ccc(NC(=O)NC2CCCCC2)cc1Cl (stereo not given) sits at 10% or higher.
1 (yes)

# check: inhibition (INH) of CCCCCCNC(=O)Nc1ccc(OCC(O)CNC(C)C)cc1 (stereo not given) is greater than or equal to 10%
0 (no)

Quick check: does CCNC(=O)Nc1ccc(OCC(O)CNC(C)(C)C)cc1 (stereo not given) have inhibition (INH) greater than or equal to 10%?
1 (yes)

Check if inhibition (INH) >= 10% (inclusive). Item: CCCCCCCCNC(=O)Nc1ccc(OCC(O)CNC(C)(C)C)c(C)c1 (stereo not given)
1 (yes)

* * *

system: Felis catus; experiment: In vivo inhibition of beta-1 adrenergic receptor in cat assessed as inhibition of isoproterenol-induced tachycardia administered as 30 mins of infusion measured at 30 mins by cardiotachometer; assay type: functional; details: 0.5 h
valueKind: ED50 (mg/kg)
Unit mg/kg implied. Number only.

Some solved entries appear below for comparison.
molecule="CC(C)(C)NCC(O)COc1ccc(NC(N)=O)cc1 (configuration not stated)" observedmeasurement=0.101
molecule="CCNC(=O)Nc1ccc(OCC(O)CNC(C)C)c(Br)c1 (configuration not stated)" observedmeasurement=0.069
molecule="Cc1cc(NC(=O)NC(C)C)ccc1OCC(O)CNC(C)(C)C (configuration not stated)" observedmeasurement=0.049
molecule="CCCNC(=O)Nc1ccc(OCC(O)CNC(C)C)c(C)c1 (configuration not stated)" observedmeasurement=0.061
molecule="CNC(=O)Nc1ccc(OCC(O)CNC(C)C)c(Cl)c1 (configuration not stated)" observedmeasurement=0.104

Request body: readout ED50, system Felis catus, query CNC(=O)Nc1ccc(OCC(O)CNC(C)C)c(C(C)=O)c1 (configuration not stated) . Return the value.
0.395

Under Felis catus: ED50 value of CCNC(=O)Nc1ccc(OCC(O)CNC(C)(C)C)c(C)c1 (configuration not stated) ?
0.057

Notebook: pull reported ED50 for Felis catus, entry CC(C)NCC(O)COc1cccc(NC(N)=O)c1 (configuration not stated)
0.028

Given the entry CCCCNC(=O)Nc1ccc(OCC(O)CNC(C)C)c(C)c1 (configuration not stated) , what ED50 was observed with Felis catus?
0.046

Give recorded ED50 with Felis catus for the following molecule: CCNC(=O)Nc1ccc(OCC(O)CNC(C)C)c(Cl)c1 (configuration not stated)
0.188

Identify the measured ED50 of C=CCc1cc(NC(=O)NCC)ccc1OCC(O)CNC(C)(C)CO (configuration not stated) for Felis catus.
0.224

Notebook entry, Felis catus assay: ED50 of C=CCNC(=O)Nc1ccc(OCC(O)CNC(C)(C)C)c(C)c1 (configuration not stated) = ?
0.045

* * *

Known ED50 of a selection of molecules
test system: Felis catus; assay: In vivo inhibition of beta-1 adrenergic receptor in cat assessed as inhibition of isoproterenol-induced tachycardia administered as 30 mins of infusion measured at 30 mins by cardiotachometer; type: functional; settings: 0.5 h
Answer format: numeric, mg/kg implied, no suffix.

Examples with their reported ED50 follow.
molecule="Cc1cc(NC(=O)NC(C)C)ccc1OCC(O)CNC(C)C (configuration not stated)" measurementtarget="Felis catus" observedmeasurement=0.438
molecule="C=CCc1cc(NC(=O)NCC)ccc1OCC(O)CNC(C)C (configuration not stated)" measurementtarget="Felis catus" observedmeasurement=0.18
molecule="CCCc1cc(NC(=O)NC)ccc1OCC(O)CNC(C)(C)C (configuration not stated)" measurementtarget="Felis catus" observedmeasurement=0.093

Let us move to another entry and its ED50.
ED50 lookup needed for CCNC(=O)Nc1ccc(OCC(O)CNC(C)COP)c(C)c1 (configuration not stated) , thanks.
0.885

* * *

system: Felis catus; assay: In vivo inhibition of beta-2 adrenergic receptor in cat assessed as inhibition of isoproterenol-induced vasodepressor response at ED50 administered as 30 mins of infusion measured at 30 mins relative to control; type: functional
Label rule, in plain words: inhibition (INH) of 30% and up is T, under 30% is F.

Worked set:
compound="CC(C)NC(=O)Nc1ccc(OCC(O)CNC(C)(C)C)cc1 (stereo unspecified)" qualitativelabel=F
compound="CCNC(=O)Nc1ccc(OCC(O)CNC(C)COP)c(C)c1 (stereo unspecified)" qualitativelabel=F
compound="CCNC(=O)Nc1ccc(OCC(O)CNC(C)C)c(OCC)c1 (stereo unspecified)" qualitativelabel=T
compound="CC(C)NCC(O)COc1cccc2ccccc12 (stereo unspecified)" qualitativelabel=T
compound="Cc1cc(NC(=O)NC(C)C)ccc1OCC(O)CNC(C)C (stereo unspecified)" qualitativelabel=T

Moving on to another compound below.
Say whether CNC(=O)Nc1ccc(OCC(O)CNC(C)C)c(I)c1 (stereo unspecified) shows inhibition (INH) of 30% or more.
T

* * *

Reported inhibition (INH) values for a set of compounds
tested on: Felis catus; assay: In vivo inhibition of beta-2 adrenergic receptor in cat assessed as inhibition of isoproterenol-induced vasodepressor response at ED50 administered as 30 mins of infusion measured at 30 mins relative to control; assay type: functional
Report the figure in % without appending any unit label.

Examples with their reported inhibition (INH) follow.
compound="CCNC(=O)Nc1ccc(OCC(O)CNC(C)(C)C)c(C)c1 (configuration not stated)" valuekind="inhibition (INH)" observedmeasurement=58
compound="C=CCNC(=O)Nc1ccc(OCC(O)CNC(C)(C)C)c(Cl)c1 (configuration not stated)" valuekind="inhibition (INH)" observedmeasurement=19
compound="CC(C)(C)NCC(O)COc1ccc(NC(N)=O)cc1 (configuration not stated)" valuekind="inhibition (INH)" observedmeasurement=0
compound="CCNC(=O)Nc1ccc(OCC(O)CNC(C)(C)C)c(CC)c1 (configuration not stated)" valuekind="inhibition (INH)" observedmeasurement=2

Lab note: next compound to report on.
Using the record for CCCCCCNC(=O)Nc1ccc(OCC(O)CNC(C)C)c(C)c1 (configuration not stated) , report its inhibition (INH).
19

# credit: ChEMBL document CHEMBL3244247
